- Target Or System: Hepatocyte growth factor receptor (Homo sapiens)
- Sequence (P08581 whole entry): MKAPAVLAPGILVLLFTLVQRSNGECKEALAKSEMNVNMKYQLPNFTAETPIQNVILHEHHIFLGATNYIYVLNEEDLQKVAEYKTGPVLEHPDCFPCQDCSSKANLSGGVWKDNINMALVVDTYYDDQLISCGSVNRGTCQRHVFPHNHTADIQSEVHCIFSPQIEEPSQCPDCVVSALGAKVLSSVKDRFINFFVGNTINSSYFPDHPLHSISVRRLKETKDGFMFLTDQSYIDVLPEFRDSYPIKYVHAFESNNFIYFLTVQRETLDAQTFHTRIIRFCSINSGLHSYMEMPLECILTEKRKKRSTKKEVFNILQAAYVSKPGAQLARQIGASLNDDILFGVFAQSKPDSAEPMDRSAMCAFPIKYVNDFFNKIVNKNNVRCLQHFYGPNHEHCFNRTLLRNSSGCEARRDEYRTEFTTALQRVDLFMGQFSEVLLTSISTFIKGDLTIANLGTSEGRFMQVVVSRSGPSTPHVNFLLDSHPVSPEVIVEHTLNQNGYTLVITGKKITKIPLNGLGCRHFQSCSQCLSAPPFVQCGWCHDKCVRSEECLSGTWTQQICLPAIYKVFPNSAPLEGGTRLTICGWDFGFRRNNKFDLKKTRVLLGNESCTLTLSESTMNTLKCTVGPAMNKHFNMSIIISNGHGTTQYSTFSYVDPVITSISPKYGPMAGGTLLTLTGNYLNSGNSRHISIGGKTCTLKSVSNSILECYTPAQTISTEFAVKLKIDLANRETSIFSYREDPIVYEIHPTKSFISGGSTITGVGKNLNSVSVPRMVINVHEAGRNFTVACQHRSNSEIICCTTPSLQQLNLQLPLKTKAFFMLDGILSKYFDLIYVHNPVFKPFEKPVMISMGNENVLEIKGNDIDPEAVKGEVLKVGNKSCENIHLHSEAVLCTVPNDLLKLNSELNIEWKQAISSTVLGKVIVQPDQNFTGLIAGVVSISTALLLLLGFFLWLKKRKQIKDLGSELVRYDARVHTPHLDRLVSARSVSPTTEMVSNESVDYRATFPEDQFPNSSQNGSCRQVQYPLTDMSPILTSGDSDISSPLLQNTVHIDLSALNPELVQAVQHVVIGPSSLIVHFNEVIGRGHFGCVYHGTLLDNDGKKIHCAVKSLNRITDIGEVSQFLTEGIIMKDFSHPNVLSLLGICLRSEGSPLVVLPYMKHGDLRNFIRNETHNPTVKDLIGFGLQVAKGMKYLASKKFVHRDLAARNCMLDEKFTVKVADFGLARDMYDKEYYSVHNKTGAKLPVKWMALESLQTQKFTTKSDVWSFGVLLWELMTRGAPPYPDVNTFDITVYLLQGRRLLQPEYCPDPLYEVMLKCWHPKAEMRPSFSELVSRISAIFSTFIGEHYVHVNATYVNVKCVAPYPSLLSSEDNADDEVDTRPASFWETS
Quantity Kind: pIC50
The meaning of pIC50 here: minus log10 of the concentration in molar units.

# input Specify measured pIC50 for Cn1cnc(-c2cc3nccc(Oc4ccc(NC(=O)c5cnn(-c6ccccc6)c5C(F)(F)F)cc4F)c3s2)c1 .
# output 7.92

Data origin, for the record: ChEMBL document CHEMBL3608274
